Measured FACS geometric mean fold change over Jurkat parental accompanies every entry in the list below.
measurement target: huFLT3-M227 stably expressed on Ramos cells (human) (UniProt P36888)
Sequence (P36888 27-993 T227M): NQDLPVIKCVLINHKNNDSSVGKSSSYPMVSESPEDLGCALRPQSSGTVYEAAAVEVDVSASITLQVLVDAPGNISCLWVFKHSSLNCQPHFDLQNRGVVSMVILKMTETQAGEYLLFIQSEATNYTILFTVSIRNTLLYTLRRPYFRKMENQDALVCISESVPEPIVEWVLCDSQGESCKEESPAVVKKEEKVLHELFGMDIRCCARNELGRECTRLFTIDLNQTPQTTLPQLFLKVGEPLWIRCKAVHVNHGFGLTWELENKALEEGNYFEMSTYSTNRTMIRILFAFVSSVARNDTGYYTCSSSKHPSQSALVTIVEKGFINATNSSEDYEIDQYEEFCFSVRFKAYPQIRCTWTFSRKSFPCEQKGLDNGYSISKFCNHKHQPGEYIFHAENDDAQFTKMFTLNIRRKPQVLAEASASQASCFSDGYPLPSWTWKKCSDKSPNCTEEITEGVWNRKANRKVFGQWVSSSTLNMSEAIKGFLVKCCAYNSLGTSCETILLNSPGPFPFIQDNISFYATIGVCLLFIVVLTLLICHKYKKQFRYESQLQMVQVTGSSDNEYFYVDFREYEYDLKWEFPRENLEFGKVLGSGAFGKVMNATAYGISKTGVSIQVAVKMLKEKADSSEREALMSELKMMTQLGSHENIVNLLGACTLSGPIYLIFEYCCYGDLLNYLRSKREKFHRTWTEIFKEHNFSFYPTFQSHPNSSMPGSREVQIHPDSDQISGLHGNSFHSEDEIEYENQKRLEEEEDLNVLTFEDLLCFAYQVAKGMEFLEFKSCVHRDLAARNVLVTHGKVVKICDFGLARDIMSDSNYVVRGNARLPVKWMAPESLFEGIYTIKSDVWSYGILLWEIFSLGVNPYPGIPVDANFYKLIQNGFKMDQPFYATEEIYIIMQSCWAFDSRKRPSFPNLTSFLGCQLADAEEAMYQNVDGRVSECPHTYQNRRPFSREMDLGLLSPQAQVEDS
measurement description: FACS on cells

[[record]]
binder = "Polypeptide No. 236 (scFv, V domains shown) VH: QVQLVQSGAEVKKPGSSVKVSCKASGGTFSSYAISWVRQAPGQGLEWMGGIIPILGIANYAQKFQGRVTITADESTSTAYMELSSLRSEDTAVYYCAHVDGYGMDVWGQGTTVTVSS VL: EIVMTQSPATLSVSPGERATLSCRASQSVSSNLAWYQQKPGQAPRLLIYDVSSRATGIPARFSGSGSGTEFTLTISSLQSEDFAVYYCQQLDAYPLTFGGGTKVEIKR"
result = "< 2 fold"

[[record]]
binder = "Polypeptide No. 277 (scFv, V domains shown) VH: QVQLVQSGAEVKKPGSSVKVSCKASGYTFTGYYMHWVRQAPGQGLEWMGWIDPNSGGTNYAQKFQGRVTITADESTSTAYMELSSLRSEDTAVYYCARDVDTAMVTDYWGRGTLVTVSS VL: EIVMTQSPATLSVSPGERATLSCRASQSVDNLVGWYQQKPGQAPRLLIYDISSRATGIPARFSGSGSGTEFTLTISSLQSEDFAVYYCQQYGRSPITFGQGTRLEIKR"
result = "< 2 fold"


# ---- query binder ----
-- ask What does the data say about its FACS geometric mean fold change over Jurkat parental? Entry: Polypeptide No. 255 (scFv, V domains shown) VH: QVQLVQSGAEVKKPGSSVKVSCKASGYTLTELSMHWVRQAPGQGLEWMGGIIPISGTVTYAQKFQGRVTITADESTSTAYMELSSLRSEDTAVYYCANKGQQLVRGYFQHWGQGTLVTVSS VL: DIQMTQSPSSLSASVGDRVTITCQASHDIRNSVNWYQQKPGKAPKLLIYATSSLQSGVPSRFSGSGSGTDFTLTISSLQPEDFATYYCQQSYNTPFTFGQGTKLEIKR
-- reply < 2 fold

Recorded values, source patent US20240101668A1.
